The entries below come with measured glycan array binding signal (z-score) values attached.
# subject_of_test: GlcNAc(b1-3)Gal(b1-3)GalNAc
# method_summary: glycan array binding signal (z-score within array); higher = stronger binding
# test_parameters: glycan notation: IUPAC condensed, linker removed
Only a selection was taken, and the strongest signals are over-represented in it overall.
measured_property: glycan array binding signal (z-score)

binder: Tap1 (Sordaria macrospora), Q50IV4 (protein) MSHHHHHHHHYTLHLRLINDTSDTLTLVEQTSWWGKNTIWSQVRSTGVHVLSMAASGSSGMLRFQTSKGDFFAVAVGVHNYKRWCDVLVDTADEAPLTKLHPKYYDDKDAKYQALWAQASEFEAKSKSGKTVRIKFYQADGNVLRATVEYL
observed: 2.84
--
binder: TbCVNHOa (Tuber borchii), Q5MK11 (protein) GSHIGPYMSYADSSRNAVLTNGGRTLRAECRNADGNWVTSELDLDTCIGNPNGFLGWGMQNFSHSSEDIKLEEGGRKLTCRPKTVDGGFRERQGIDLNRIQNVNGRLVFQ
observed: -0.222
--
binder: LysMD3 (Homo sapiens), Q7Z3D4 (protein) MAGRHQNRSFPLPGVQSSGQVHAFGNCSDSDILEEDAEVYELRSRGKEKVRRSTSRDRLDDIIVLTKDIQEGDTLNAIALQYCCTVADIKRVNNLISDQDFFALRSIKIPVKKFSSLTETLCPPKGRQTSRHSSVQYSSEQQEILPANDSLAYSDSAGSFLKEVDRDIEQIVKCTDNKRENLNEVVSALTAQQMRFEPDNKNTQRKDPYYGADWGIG
observed: 1.5
